target: Insulin receptor (Homo sapiens)
Sequence (P06213 28-758 limits assumed): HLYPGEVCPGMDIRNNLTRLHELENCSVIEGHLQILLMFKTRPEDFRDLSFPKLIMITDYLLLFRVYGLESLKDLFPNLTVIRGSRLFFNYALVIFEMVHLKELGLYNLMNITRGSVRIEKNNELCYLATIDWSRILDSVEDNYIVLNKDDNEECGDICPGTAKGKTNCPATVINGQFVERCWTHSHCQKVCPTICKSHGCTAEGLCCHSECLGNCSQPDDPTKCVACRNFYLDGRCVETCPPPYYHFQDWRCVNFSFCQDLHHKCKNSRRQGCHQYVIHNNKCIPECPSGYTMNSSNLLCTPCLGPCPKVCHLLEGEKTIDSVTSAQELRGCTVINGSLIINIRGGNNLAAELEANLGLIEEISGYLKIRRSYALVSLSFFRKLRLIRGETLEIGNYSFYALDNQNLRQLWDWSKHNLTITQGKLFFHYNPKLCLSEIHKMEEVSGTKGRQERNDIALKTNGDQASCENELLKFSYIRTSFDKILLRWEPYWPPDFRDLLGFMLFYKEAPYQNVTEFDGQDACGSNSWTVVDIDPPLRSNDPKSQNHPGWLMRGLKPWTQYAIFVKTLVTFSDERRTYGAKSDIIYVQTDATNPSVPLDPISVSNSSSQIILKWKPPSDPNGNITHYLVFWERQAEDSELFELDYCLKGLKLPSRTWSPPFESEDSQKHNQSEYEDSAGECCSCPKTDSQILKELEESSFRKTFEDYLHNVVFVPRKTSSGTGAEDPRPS
Sequence (P06213 763-1382 limits assumed): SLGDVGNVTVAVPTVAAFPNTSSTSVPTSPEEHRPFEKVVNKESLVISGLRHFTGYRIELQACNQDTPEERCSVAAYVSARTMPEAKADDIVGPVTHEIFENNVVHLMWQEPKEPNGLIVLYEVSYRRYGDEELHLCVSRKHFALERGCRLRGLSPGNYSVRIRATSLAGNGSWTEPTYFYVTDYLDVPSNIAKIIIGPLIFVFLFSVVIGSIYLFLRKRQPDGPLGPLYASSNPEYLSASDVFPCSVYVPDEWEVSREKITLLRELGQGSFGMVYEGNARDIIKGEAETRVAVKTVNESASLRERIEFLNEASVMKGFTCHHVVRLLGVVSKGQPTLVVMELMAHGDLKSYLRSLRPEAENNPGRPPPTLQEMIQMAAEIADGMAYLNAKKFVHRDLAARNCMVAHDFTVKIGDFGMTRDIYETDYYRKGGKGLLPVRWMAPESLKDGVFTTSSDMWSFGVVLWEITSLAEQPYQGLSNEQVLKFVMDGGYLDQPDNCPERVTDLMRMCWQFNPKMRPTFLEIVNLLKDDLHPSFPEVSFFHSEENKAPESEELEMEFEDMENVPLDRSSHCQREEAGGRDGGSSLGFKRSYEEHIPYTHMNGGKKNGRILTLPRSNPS

| smiles_notation | target | IC50 |
| --- | --- | --- |
| CCNc1cc(N[C@H]2CC[C@H](O)CC2)nc(Nc2ccc3c(ccn3Cc3ccccc3)c2)n1 | Insulin receptor (Homo sapiens) | > 10 µM |
